Attribute: IC50
Tested on: HeLa cells
Assay: Cell viability, HeLa cells
Assay type: cell-based
Conditions: Homo sapiens
Counter-ions that a name gives are not always drawn.
Write the value in µM as a bare number.

[[record]]
compound = "CNS(=O)(=O)Cc1cccc(Nc2cc(-c3ccccc3OC)ncn2)c1 [Ref2, reference compound]"
numeric_result = 4.6

[[record]]
compound = "COc1ccccc1-c1ncnc(Nc2cccc(CS(N)(=O)=O)c2)n1 [B1′, trifluoroacetic acid salt]"
numeric_result = 3.2


Entry under review: COc1ccccc1-c1cc(Nc2cccc(CS(N)(=O)=O)c2)ncn1 [Ref1, reference compound] . Reported IC50?
3.4

----------
Target: CDK2/CyclinA (Homo sapiens)
Experiment: Lance Ultra KinaSelect Assay, CDK2
Conditions: ATP 3 μM, read-out: Inhibition (IC50) CDK2
Structures can show the parent of a compound that is named as a salt.
Kindly apply the following: Criterion met if IC50 is less than 1000 nM, Criterion not met in every other case.

As a guide, the following entries are already answered.
[[record]]
compound = "COc1ccccc1-c1ncnc(Nc2cccc(S(C)(=O)=O)c2)n1 [Compound S1]"
class_name = "Criterion not met"

[[record]]
compound = "COc1ccccc1-c1ncnc(Nc2cccc(NS(C)(=O)=O)c2)n1 [Compound K1]"
class_name = "Criterion met"

[[record]]
compound = "COc1ccccc1-c1ncnc(Nc2cccc(S(N)(=O)=O)c2)n1 [C1′, trifluoroacetic acid salt]"
class_name = "Criterion met"

[[record]]
compound = "COc1cc(Cl)ccc1-c1ncnc(Nc2cccc(CS(N)(=O)=O)c2)n1 [Compound B6]"
class_name = "Criterion not met"

[[record]]
compound = "CCOc1ccccc1-c1ncnc(Nc2cccc(CS(N)(=O)=O)c2)n1 [Compound B12]"
class_name = "Criterion not met"

[[record]]
compound = "COc1cc(F)ccc1-c1ncnc(Nc2cccc(CS(N)(=O)=O)c2)n1 [B2″, trifluoroacetic acid salt]"
class_name = "Criterion met"

[[record]]
compound = "NS(=O)(=O)Cc1cccc(Nc2ncnc(-c3ccccc3OCc3ccncc3)n2)c1 [Compound B16]"
class_name = "Criterion not met"

[[record]]
compound = "NS(=O)(=O)Cc1cccc(Nc2ncnc(-c3ccccc3OCc3ccccc3)n2)c1 [B13′, trifluoroacetic acid salt]"
class_name = "Criterion not met"

[[record]]
compound = "CCCS(=O)(=O)Nc1cccc(Nc2ncnc(-c3ccccc3OC)n2)c1 [Compound L1]"
class_name = "Criterion not met"

[[record]]
compound = "COc1cc(F)ccc1-c1ncnc(Nc2cccc(CCS(N)(=O)=O)c2)n1 [Compound D2]"
class_name = "Criterion met"


Is IC50 strictly under 1000 nM for the entry COc1ccccc1-c1ncnc(Nc2ccc(CS(N)(=O)=O)cc2)n1 [Compound T1] ?
Criterion met

Given COc1ccccc1-c1ncnc(Nc2cccc(CS(N)(=O)=O)c2)n1 [B1′, trifluoroacetic acid salt] , is recorded IC50 strictly lower than 1000 nM?
Criterion not met

Decide: IC50 of COc1cccc(F)c1-c1ncnc(Nc2cccc(CS(N)(=O)=O)c2)n1 [Compound B4] strictly below 1000 nM?
Criterion not met

Quick check: does COc1ccccc1-c1ncnc(Nc2cccc(CCS(N)(=O)=O)c2)n1 [Compound D1] have IC50 under 1000 nM?
Criterion met
